Test system: Norovirus
Test: Norovirus antiviral assay
Assay type: cell-based
pEC50: −log10 of the molar value.
Task for the reader: assign each of the following compounds its reported pEC50.

input: What measured pEC50 goes with COc1ccc(-c2sc(NC3CCCCCC3)nc2C)cc1S(=O)(=O)Nc1c(C)cccc1C [Compound S-98] ?
output: 5.00 to 6.00

input: Suppose we examine the compound COc1ccc(-c2sc(NC(=O)CC3CCOCC3)nc2C)cc1S(=O)(=O)Nc1ccc(O)cc1 [Compound S-227] ; what pEC50 value has been reported?
output: 6.00 to 7.00

---

readout.kind: IC50

input: Observed IC50 on PI3K p110a (Homo sapiens) for COc1ncc(-c2sc(NC(=O)CC3CCOCC3)nc2C)cc1S(=O)(=O)NC1CCCC(O)C1 (stereo not shown) [Compound S-263] , please.
Sequence (P42336 whole entry): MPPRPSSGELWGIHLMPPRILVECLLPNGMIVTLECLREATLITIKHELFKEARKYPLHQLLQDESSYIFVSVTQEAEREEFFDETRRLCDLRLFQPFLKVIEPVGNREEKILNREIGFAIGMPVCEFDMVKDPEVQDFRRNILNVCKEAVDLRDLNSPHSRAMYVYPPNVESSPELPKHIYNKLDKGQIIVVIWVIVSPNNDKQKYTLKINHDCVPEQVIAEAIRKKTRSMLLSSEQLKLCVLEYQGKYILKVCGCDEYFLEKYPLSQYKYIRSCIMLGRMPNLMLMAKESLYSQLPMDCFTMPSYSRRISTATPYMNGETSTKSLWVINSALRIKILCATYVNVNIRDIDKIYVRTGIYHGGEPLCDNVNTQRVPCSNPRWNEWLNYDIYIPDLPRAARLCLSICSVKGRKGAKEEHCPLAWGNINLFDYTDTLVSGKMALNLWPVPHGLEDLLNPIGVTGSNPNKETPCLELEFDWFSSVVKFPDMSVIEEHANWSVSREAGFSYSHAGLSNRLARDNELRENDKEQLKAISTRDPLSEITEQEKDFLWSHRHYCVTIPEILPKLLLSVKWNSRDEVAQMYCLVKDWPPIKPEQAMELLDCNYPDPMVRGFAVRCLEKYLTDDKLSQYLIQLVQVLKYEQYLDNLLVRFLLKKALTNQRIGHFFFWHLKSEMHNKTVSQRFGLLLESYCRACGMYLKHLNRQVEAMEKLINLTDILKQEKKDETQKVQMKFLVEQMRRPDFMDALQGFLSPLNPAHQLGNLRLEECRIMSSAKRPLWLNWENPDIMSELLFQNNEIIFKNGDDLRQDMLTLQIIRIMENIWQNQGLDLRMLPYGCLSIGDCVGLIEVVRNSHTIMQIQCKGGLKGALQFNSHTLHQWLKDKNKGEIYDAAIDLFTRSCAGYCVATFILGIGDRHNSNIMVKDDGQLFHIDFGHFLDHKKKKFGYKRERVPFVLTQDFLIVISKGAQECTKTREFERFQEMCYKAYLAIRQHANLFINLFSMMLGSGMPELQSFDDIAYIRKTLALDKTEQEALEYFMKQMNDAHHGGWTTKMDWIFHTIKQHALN
Sequence (P27986 whole entry partner): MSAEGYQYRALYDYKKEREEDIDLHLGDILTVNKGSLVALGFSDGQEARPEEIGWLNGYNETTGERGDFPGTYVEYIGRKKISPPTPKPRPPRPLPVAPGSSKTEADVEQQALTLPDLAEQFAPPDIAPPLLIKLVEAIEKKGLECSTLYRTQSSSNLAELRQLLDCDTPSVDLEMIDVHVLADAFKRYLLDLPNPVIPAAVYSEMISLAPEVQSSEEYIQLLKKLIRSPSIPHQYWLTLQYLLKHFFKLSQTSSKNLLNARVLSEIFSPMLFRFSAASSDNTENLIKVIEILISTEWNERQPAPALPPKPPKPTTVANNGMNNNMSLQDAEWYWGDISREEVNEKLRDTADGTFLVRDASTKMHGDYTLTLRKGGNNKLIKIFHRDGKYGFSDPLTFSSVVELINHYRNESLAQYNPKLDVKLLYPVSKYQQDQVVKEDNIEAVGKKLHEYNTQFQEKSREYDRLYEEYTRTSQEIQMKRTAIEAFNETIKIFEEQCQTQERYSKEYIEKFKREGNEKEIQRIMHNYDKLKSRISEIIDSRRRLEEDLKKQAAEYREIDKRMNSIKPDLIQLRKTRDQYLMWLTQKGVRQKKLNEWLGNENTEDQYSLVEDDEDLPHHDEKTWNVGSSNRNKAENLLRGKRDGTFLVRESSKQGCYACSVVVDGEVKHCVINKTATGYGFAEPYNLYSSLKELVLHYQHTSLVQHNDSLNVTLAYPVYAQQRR
output: 1 to 10 µM

These data points were gathered from patent US10428060B2.
